Just for reference, paper PMC9090415 is where these values come from.

target: bacteriophage T4 DNA polymerase (Enterobacteria phage T4, UniProt P04415); construct: made in house; test: Counter-screen against bacteriophage T4 DNA polymerase; format: biochemical; settings: DRC-2; read at 40'; concentration 5
Sequence (P04415 whole entry): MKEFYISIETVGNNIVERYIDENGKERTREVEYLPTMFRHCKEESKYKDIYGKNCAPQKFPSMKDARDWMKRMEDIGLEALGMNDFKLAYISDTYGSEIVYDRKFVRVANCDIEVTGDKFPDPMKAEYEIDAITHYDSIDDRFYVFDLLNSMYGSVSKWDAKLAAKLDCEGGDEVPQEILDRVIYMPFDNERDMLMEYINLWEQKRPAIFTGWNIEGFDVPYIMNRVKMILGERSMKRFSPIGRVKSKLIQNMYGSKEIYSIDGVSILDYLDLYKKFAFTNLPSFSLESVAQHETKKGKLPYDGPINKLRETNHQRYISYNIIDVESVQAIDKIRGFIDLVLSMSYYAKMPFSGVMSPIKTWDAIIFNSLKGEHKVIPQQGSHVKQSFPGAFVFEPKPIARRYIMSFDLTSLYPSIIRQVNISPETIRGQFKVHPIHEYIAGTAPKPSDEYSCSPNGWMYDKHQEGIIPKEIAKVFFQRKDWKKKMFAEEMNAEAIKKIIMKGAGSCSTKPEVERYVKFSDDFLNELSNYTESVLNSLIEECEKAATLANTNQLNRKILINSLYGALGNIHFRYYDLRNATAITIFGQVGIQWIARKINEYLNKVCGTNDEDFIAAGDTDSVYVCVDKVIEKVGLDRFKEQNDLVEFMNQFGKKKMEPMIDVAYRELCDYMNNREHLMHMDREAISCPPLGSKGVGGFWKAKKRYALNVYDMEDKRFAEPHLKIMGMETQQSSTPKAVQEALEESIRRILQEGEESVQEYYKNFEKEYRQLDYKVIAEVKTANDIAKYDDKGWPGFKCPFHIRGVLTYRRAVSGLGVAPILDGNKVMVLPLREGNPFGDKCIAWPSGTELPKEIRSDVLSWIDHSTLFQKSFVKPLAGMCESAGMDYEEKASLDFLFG
Readout type: % inhibition T4 40' 5 (%)

Cn1nc(-c2nc(-c3ccccc3)no2)c2c1CCN(C(=O)Cc1cccs1)C2 [Molecule 58] = 6.41
COc1ccccc1CC(=O)N1CCc2c(nc3cc(-c4ccccc4Cl)[nH]n3c2=O)C1 [Molecule 49] = -24
Cc1ccc(N2CCC(NC(=O)Cc3cccs3)C2=O)cc1C (stereo not drawn) [Molecule 57, O=C(NC1CCN(C1=O)c1ccc(c(c1)C)C)Cc1cccs1] = 12

====

This listing pairs compounds with measured % inhibition Apol 90'.
target: P. falciparum apicoplast DNA polymerase (Pf-apPOL) (Plasmodium falciparum); experiment: Fluorescence-based high-throughput DNA polymerase assay (molecular beacon), primary screen and dose-response; format: biochemical; details: DRC-1; 90'; concentration 5
Readout type: % inhibition Apol 90' (%)

CN1CC(=Cc2ccco2)C(=O)C(=Cc2ccco2)C1 = 22.0675
O=c1[nH]c2ccc([N+](=O)[O-])cc2c(-c2ccccc2)c1Sc1nc2ccccc2o1 = 5.979
CCOc1ccc(/C=C2\N=C(c3cc([N+](=O)[O-])cc([N+](=O)[O-])c3)OC2=O)cc1 = 31.639
COc1ccc(CNC(=O)Cn2nc3c(c2NC(=O)Cc2cccs2)CSC3)cc1 = 0.071
O=C(O)c1c(F)c(F)c(-c2c(F)c(F)c(C(=O)O)c(F)c2F)c(F)c1F = 7.4359
CCCCCCCCCCCC1SCC(C(=O)O)N1C(C)=O (centres unmarked) = 5.518
CN(C)C=C1SCc2ccccc2C1=O = 3.396
COc1cc(NC(=O)c2ccccc2)c(OC)cc1NC(=O)Cc1cccs1 = 9.442
O=C(O)c1cccc(N2N=C(C(F)(F)F)/C(=C/c3ccc(-c4ccccc4[N+](=O)[O-])o3)C2=O)c1 = 4.613
O=C(O)c1ccc(-c2nc3cc(-c4ccc5nc(-c6ccc(C(=O)O)cc6)[nH]c5c4)ccc3[nH]2)cc1 = 40.2973
O=C(NNC(=O)C(F)(F)Sc1ccccc1)c1ccsc1 [Molecule 68, O=C(C(Sc1ccccc1)(F)F)NNC(=O)c1cscc1] = 4.132
COc1ccc2c(c1)CCc1c-2nc2ccc(Br)cc2c1C(=O)O = 18.7068
Cc1ccc(NC(=O)Cn2ccc3c(=O)[nH]ccc32)cc1F [Molecule 48, O=C(Cn1ccc2c1cc[nH]c2=O)Nc1ccc(c(c1)F)C] = -1.632
CO/N=C(\C(=O)N[C@@H]1C(=O)N2C(C(=O)[O-])=C(CSc3nc(=O)c([O-])nn3C)CSC12)c1csc(N)n1.[Na+].[Na+] (some centres unmarked) = -4.018
CC(=O)Nc1cc(C(=O)NC(C)C)c2ccc(C)nc2c1 = -1.224
Cn1nc(C(=O)N2CCc3c(nc4cc(-c5ccccc5)[nH]n4c3=O)C2)c2ccccc21 = 16
CSCCC(C)(O)CNC(=O)C1CC1 (centres unmarked) = 12.5551

====

target: P. falciparum apicoplast DNA polymerase (Pf-apPOL) (Plasmodium falciparum); test: Fluorescence-based high-throughput DNA polymerase assay (molecular beacon), primary screen and dose-response; assay type: biochemical; settings: DRC-1; read at 180'; concentration 80
Could you label it Fulfilled if measured % inhibition apPOL 180' 80 is 60% or higher, and Not fulfilled otherwise?

Nc1cc(Oc2ccc(O)c(N)c2)ccc1O = Not fulfilled
CC(=O)Nc1cc(C(=O)c2cccs2)nn(-c2ccc(Cl)cc2)c1=O = Fulfilled
COc1ccc(/C=C/c2cc(C(=O)O)c3ccccc3n2)cc1 = Fulfilled
N#Cc1c(O)nc(N2CCCCC2)nc1-c1ccc2c(c1)OCO2 = Fulfilled
Cc1cccc(-c2noc(C(=O)NNC(=O)C(Cl)(Cl)Cl)n2)c1 = Fulfilled
Cn1nc(-c2nnc(-c3ccccc3F)o2)c2c1CCN(C(=O)c1ccccc1Cl)C2 = Fulfilled

====

target: P. falciparum apicoplast DNA polymerase (Pf-apPOL) (Plasmodium falciparum); experiment: Fluorescence-based high-throughput DNA polymerase assay (molecular beacon), primary screen and dose-response; assay type: biochemical; conditions: DRC-2; 90'; concentration 10
# key: entry, value: % inhibition ApPOL 90'
Readout type: % inhibition ApPOL 90' (%)

Cc1ncc(CSc2nc(C(C)(C)C)cs2)c(CO)c1O = 14
O=C1C(=Cc2ccncc2)Oc2c1ccc1c2CN(Cc2ccc3c(c2)OCO3)CO1 = 26
CCOc1ccc(/C=C2\N=C(c3cc([N+](=O)[O-])cc([N+](=O)[O-])c3)OC2=O)cc1 = 42
COc1ccc(C(=O)Nc2cccc(-c3nc4ncccc4o3)c2)cc1[N+](=O)[O-] = 15
CC(NC(=O)Cc1cc(=O)[nH]c(SCc2cccc(Cl)c2)n1)c1ccccc1 (centres unmarked) = 32
O=C(NC(C(Cl)Cl)S(=O)(=O)c1ccccc1)c1ccccc1 (centres unmarked) = 35
COc1cccc(C(=O)N2CCc3c(nc4cc(-c5ccccc5)[nH]n4c3=O)C2)c1OC = 44
CC(C)CCNC(=O)c1cnn2c(O)cc(CSc3ccc(Cl)cc3)nc12 = 66

====

biological target: P. falciparum apicoplast DNA polymerase (Pf-apPOL) (Plasmodium falciparum, UniProt Q8ILY1); assay: Fluorescence-based high-throughput DNA polymerase assay (molecular beacon), primary screen and dose-response; assay type: biochemical; conditions: DRC-2, 180', concentration 40
Sequence (Q8ILY1 entry or part of it): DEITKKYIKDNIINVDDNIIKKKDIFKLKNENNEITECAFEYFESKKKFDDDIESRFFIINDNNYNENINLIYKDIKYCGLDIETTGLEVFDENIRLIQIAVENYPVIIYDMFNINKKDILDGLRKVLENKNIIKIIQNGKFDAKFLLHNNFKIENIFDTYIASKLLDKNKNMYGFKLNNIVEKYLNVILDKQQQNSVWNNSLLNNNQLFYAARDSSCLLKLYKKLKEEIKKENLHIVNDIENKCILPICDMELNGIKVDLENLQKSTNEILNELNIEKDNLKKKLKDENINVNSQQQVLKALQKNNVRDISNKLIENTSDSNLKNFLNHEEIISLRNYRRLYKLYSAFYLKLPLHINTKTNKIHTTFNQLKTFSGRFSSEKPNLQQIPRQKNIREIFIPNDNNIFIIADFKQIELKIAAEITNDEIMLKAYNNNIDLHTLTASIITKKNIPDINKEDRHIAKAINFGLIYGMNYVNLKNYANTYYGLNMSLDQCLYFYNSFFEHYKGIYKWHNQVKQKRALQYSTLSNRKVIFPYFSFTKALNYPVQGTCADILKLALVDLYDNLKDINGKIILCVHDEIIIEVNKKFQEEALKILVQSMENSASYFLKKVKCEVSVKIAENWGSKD
// values below are reported % inhibition apPOL 180'
Readout type: % inhibition apPOL 180'

O=C(O)C(=O)Nc1nc(-c2ccc3c(c2)OCCO3)cs1 = 25%
O=C(Nc1nnc(-c2ccno2)o1)c1ccc2ncsc2c1 = 46%
O=C(Nc1nnc(-c2cccs2)o1)c1ccc([N+](=O)[O-])o1 = 45%
O=C(Nc1ncc([N+](=O)[O-])s1)c1ccc2c(c1)C(=O)N(N1C(=O)c3ccccc3C1=O)C2=O = 59%
Cn1nc(C(=O)N2CCc3c(nc4cc(-c5ccccc5)[nH]n4c3=O)C2)c2ccccc21 = 45%
COc1ccc(C(=O)Nc2cccc(-c3nc4ncccc4o3)c2)cc1[N+](=O)[O-] = 73%
CCOc1ccccc1-c1nc(-c2ccc(=O)[nH]c2)no1 [Molecule 76, CCOc1ccccc1c1onc(n1)c1ccc(=O)[nH]c1] = 37%
O=C(NNC(=O)C(F)(F)Sc1ccccc1)c1ccsc1 [Molecule 68, O=C(C(Sc1ccccc1)(F)F)NNC(=O)c1cscc1] = 32%
O=[N+]([O-])c1cc2c(cc1CN1CCCCCC1)OCO2 = 22%
Cc1ncc(CSc2nc(C(C)(C)C)cs2)c(CO)c1O = 30%

====

biological target: P. falciparum apicoplast DNA polymerase (Pf-apPOL) (Plasmodium falciparum, UniProt Q8ILY1); assay: Fluorescence-based high-throughput DNA polymerase assay (molecular beacon), primary screen and dose-response; type: biochemical; conditions: DRC-1; concentration 40; 90'
The molecules listed here are annotated with their % inhibition Apol 90'.
Readout type: % inhibition Apol 90' (%)

O=C(Nc1c2c(nn1-c1ccccc1)CSC2)c1ccco1 = 82.7699
O=C(O)c1cc([N+](=O)[O-])c(N2CCN(c3cccc(C(F)(F)F)c3)CC2)c([N+](=O)[O-])c1 = 81.5158
O=C(O)c1nc(-c2ccccc2)nc2c1OCO2 = 75.6472
Cc1ccc(C2=N/C(=C\c3ccc(I)o3)C(=O)O2)cc1[N+](=O)[O-] = 86.9491
CCc1ccccc1NC(=O)c1ccc(-c2ncccc2NC(C)=O)cc1 = 72.954
O=C1c2ccccc2C(=O)c2c1oc1c3c(ccc21)OCN(C1CCCC1)C3 = 89.2086
Nc1ncnc(NC2CCCCC2)c1[N+](=O)[O-] = 70.3163
COc1ccc(NC(=O)Cn2nc3c(cc2=O)CCC3)cc1Cl = 92
COc1ccc(-c2occ(C(=O)O)c2C(=O)O)cc1 = 84.6266

====

target: UniProt Q8ILY1; assay: Fluorescence-based high-throughput DNA polymerase assay (molecular beacon), primary screen and dose-response; format: biochemical; details: DRC-2; concentration 2.5; 90'
Entries annotated with measured % inhibition ApPOL 90'
Readout type: % inhibition ApPOL 90'

CCOc1ccc2cc(C3=NN(C(=O)CCC(=O)O)C(c4ccc(C)cc4)C3)c(=O)[nH]c2c1 (centres unmarked) = -0.536%
COc1ccc(-c2occ(C(=O)O)c2C(=O)O)cc1 = 16%
CCCN1COc2ccc3c(=O)c(-c4ccccc4)coc3c2C1 = 3.57%
O=[N+]([O-])c1ccc(SCc2ccco2)c2cccnc12 = 36%
O=C(Cc1cccs1)N1CCN(c2nc(CN3CCOCC3)cs2)CC1 = 8%
COc1ccc(C=C2Oc3c(ccc4c3CN(Cc3ccco3)CO4)C2=O)c(OC)c1 = -0.679%
COc1ccc(NC(=O)Cn2nc3c(cc2=O)CCC3)cc1Cl = 16%
CCCCCc1c2c(cc(O)c1C(=O)O)OC(=O)c1c(cc(OC)cc1C(=O)CCCC)O2 = 11%
O=C(Nc1c2c(nn1-c1ccccc1)CSC2)c1ccco1 = 17%
O=C(O)c1cc([N+](=O)[O-])c(N2CCN(c3cccc(C(F)(F)F)c3)CC2)c([N+](=O)[O-])c1 = 10%
Cc1cc(C)nc(Nc2nc(CC(=O)Nc3nc(-c4ccco4)cs3)cs2)n1 = 7.61%
